Target: UniProt P25099
Sequence (P25099 1-326): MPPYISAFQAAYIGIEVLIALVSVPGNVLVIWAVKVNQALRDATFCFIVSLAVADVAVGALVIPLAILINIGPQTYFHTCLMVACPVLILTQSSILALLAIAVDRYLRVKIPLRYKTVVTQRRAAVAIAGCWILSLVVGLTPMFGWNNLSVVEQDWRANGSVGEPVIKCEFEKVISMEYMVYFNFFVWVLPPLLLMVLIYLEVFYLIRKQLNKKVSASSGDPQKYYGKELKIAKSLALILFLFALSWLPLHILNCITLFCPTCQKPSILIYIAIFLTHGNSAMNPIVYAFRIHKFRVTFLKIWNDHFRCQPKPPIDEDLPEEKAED
Assay: biochemical
observed property: Ki (nM)

I = CCCn1c(=O)c2[nH]c([C@@H](CC)c3ccccc3)nc2n(CCC)c1=O
II = C=CCn1c(=O)c2[nH]c(C(C)c3ccccc3)nc2n(CC=C)c1=O (stereo not shown)
III = CCCn1c(=O)c2[nH]c(C(CC)c3ccccc3)nc2n(CCC)c1=O (racemic)
IV = CCCn1c(=O)c2[nH]c([C@H](CC)c3ccccc3)nc2n(CCC)c1=O
Rank the items in ascending order with respect to Ki. I'd appreciate it if you listed the labels in the requested order.
IV, III, II, I
(IV: 1.6 nM, III: 5.1 nM, II: 20 nM, I: 52 nM)
